tested on: EMT-6 mammary tumors; experiment: Biodistribution in EMT-6 BALB/C mice; assay type: in vivo; settings: heart, 5 min
Labelling field: enter met if recorded % ID per gram heart is less than 4 % ID per gram. Enter not met if it equals or exceeds that cut-off.

- COMPOUND: "COc1cc2c(cc1OC)CN(CCCCNC(=O)c1cc([76Br])cc(OC)c1OC)CC2 [[^76Br]6]"
  TARGET_ENTITY: "EMT-6 mammary tumors"
  LABEL: "not met"
- COMPOUND: "COc1cc2c(cc1OC)CN(CCCCNC(=O)c1cc(C)cc(OC)c1O[11CH3])CC2 [[^11C]10]"
  TARGET_ENTITY: "EMT-6 mammary tumors"
  LABEL: "not met"
- COMPOUND: "COc1cc2c(cc1OC)CN(CCCCNC(=O)c1cc(Br)cc(OC)c1O[11CH3])CC2 [[^11C]6]"
  TARGET_ENTITY: "EMT-6 mammary tumors"
  LABEL: "met"
- COMPOUND: "COc1cc2c(cc1OC)CN(CCNC(=O)c1cc([125I])ccc1OC)CC2 [[^125I]8i]"
  TARGET_ENTITY: "EMT-6 mammary tumors"
  LABEL: "met"
- COMPOUND: "COc1cc2c(cc1OC)CN(CCNC(=O)c1cc(C)ccc1O[11CH3])CC2 [[^11C]9]"
  TARGET_ENTITY: "EMT-6 mammary tumors"
  LABEL: "met"
- COMPOUND: "COc1cc2c(cc1OC)CN(CCCCNC(=O)c1cc([125I])cc(OC)c1OC)CC2 [[^125I]6i]"
  TARGET_ENTITY: "EMT-6 mammary tumors"
  LABEL: "not met"

Data origin, for the record: patent US7893266B2
